// provenance: ChEMBL document CHEMBL3351699

- Test system: Mycobacterium tuberculosis
- Test Protocol: Antimicrobial activity against clinical isolate Mycobacterium tuberculosis DKU211 assessed as growth inhibition after 7 days by turbidometry
- Type: functional
- Condition Info: DKU211, 168 h

{"Smiles Representation": "CO[C@H]1/C=C/O[C@@]2(C)Oc3c(C)c(O)c4c(O)c(c(/C=N/N5CCN(C)CC5)c(O)c4c3C2=O)NC(=O)/C(C)=C\\C=C\\[C@H](C)[C@H](O)[C@@H](C)[C@@H](O)[C@@H](C)[C@H](OC(C)=O)[C@@H]1C", "Test System": "Mycobacterium tuberculosis", "MIC80 [µg/mL]": 0.003}
{"Smiles Representation": "CCCc1cc(-c2nc(-c3cccc(OC)c3)cs2)ccn1", "Test System": "Mycobacterium tuberculosis", "MIC80 [µg/mL]": 1}
{"Smiles Representation": "CCCc1cc(-c2nc(-c3ccc(NS(C)(=O)=O)cc3)cs2)ccn1", "Test System": "Mycobacterium tuberculosis", "MIC80 [µg/mL]": 0.5}
{"Smiles Representation": "CCCc1cc(-c2nc(-c3ccc(OCC4CC4)cc3)cs2)ccn1", "Test System": "Mycobacterium tuberculosis", "MIC80 [µg/mL]": 0.5}
{"Smiles Representation": "CCCc1cc(-c2nc(-c3ccc(OCCN4CCOCC4)cc3)cs2)ccn1", "Test System": "Mycobacterium tuberculosis", "MIC80 [µg/mL]": 1}
{"Smiles Representation": "NNC(=O)c1ccncc1", "Test System": "Mycobacterium tuberculosis", "MIC80 [µg/mL]": 0.06}
